assay: PK analysis of 8M2D in transgenic mice (APPSWE), plasma; details: mouse, in vivo, sc, 250 mg/kg, Day 13, 250 mg/kg, read-out: Cl/F
Square brackets hold non-standard residues; d marks the D form. Peptide text beside a SMILES is read from it.
endpoint-label: CL/F (mL/min/kg)
Field: numeric (mL/min/kg). Do not append units.

Enquiry: Entry CC(=O)N[C@H](CC(=O)O)C(=O)N[C@@H](CCC(=O)O)C(=O)N[C@@H](CCC(=O)O)C(=O)N[C@@H](CCC(=O)O)C(=O)N[C@@H](CC(=O)O)C(=O)N[C@@H](CCC(=O)O)C(=O)N[C@@H](CCC(=O)O)C(=O)N[C@@H](CC(C)C)C(N)=O [8M2D, Ac-dEEEDEEL-NH2] (Ac-[dD]EEEDEEL-NH2) has what CL/F?
Return: 13.5

---

assay: PK analysis of 8M2D in transgenic mice (APPSWE), plasma; details: mouse, in vivo, sc, 50 mg/kg, Day 13, 50 mg/kg, read-out: Cl/F
Square brackets hold non-standard residues; d marks the D form. Peptide text beside a SMILES is read from it.
endpoint-label: CL/F (mL/min/kg)
Number in mL/min/kg, nothing else.

Enquiry: Fill in the blank: the reported CL/F of CC(=O)N[C@H](CC(=O)O)C(=O)N[C@@H](CCC(=O)O)C(=O)N[C@@H](CCC(=O)O)C(=O)N[C@@H](CCC(=O)O)C(=O)N[C@@H](CC(=O)O)C(=O)N[C@@H](CCC(=O)O)C(=O)N[C@@H](CCC(=O)O)C(=O)N[C@@H](CC(C)C)C(N)=O [8M2D, Ac-dEEEDEEL-NH2] (Ac-[dD]EEEDEEL-NH2) is ____.
Return: 12.9

---

assay: Metabolic stability of peptides in fresh human plasma (LC/MS/MS); format: in vitro ADME; settings: fresh human plasma, 24 h incubation
Ends that are not written are not given here.
endpoint-label: remaining at 24 h, 1 µM (%)
Unit % implied. Number only.

substance="DEEEDEEL-OH [P8, DEEEDEEL, reference compound]" value_observed=72

With those in mind, consider the next substance.
Enquiry: Return reported remaining at 24 h, 1 µM; argument: H-DEEEDEEL-NH2 [8M1, DEEEDEEL-NH2]
Return: 47.1

---

Experiment: PK analysis of 8M2D in transgenic mice (APPSWE), plasma
Settings: mouse, in vivo, sc, 250 mg/kg, Day 13, Mean over the 10, 50 and 250 mg/kg doses (N 3), read-out: Cmax, Mean
Description: Pharmacokinetics (PK) of 8M2D was further analyzed with various doses at days 1 and 13 in transgenic mice (APPSWE (B6; SJL 2576 Kha; Taconic)). See Hsiao et al., Correlative memory deficits, Aβ elevation, and amyloid plaques in transgenic mice. Science 274:99-102 (1996); and Haugabook et al., Reduction of Abeta accumulation in the Tg2576 animal model of Alzheimer's disease after oral administration of the phosphatidyl-inositol kinase inhibitor wortmannin. Faseb J 15:16-18 (2001).
Square brackets hold non-standard residues; d marks the D form. Peptide text beside a SMILES is read from it.
endpoint-label: Cmax (µg/mL)
The figure you give is taken to be in µg/mL; do not add the unit.

Enquiry: Find the recorded Cmax belonging to CC(=O)N[C@H](CC(=O)O)C(=O)N[C@@H](CCC(=O)O)C(=O)N[C@@H](CCC(=O)O)C(=O)N[C@@H](CCC(=O)O)C(=O)N[C@@H](CC(=O)O)C(=O)N[C@@H](CCC(=O)O)C(=O)N[C@@H](CCC(=O)O)C(=O)N[C@@H](CC(C)C)C(N)=O [8M2D, Ac-dEEEDEEL-NH2] (Ac-[dD]EEEDEEL-NH2) and report it.
Return: 121

---

assay: PK analysis of 8M2D in transgenic mice (APPSWE), plasma; details: mouse, in vivo, sc, 250 mg/kg, Day 13, 250 mg/kg, read-out: Cmax
Square brackets hold non-standard residues; d marks the D form. Peptide text beside a SMILES is read from it.
endpoint-label: Cmax (µg/mL)
// note: answer is a bare numeric in µg/mL

Enquiry: # query: Cmax of entry CC(=O)N[C@H](CC(=O)O)C(=O)N[C@@H](CCC(=O)O)C(=O)N[C@@H](CCC(=O)O)C(=O)N[C@@H](CCC(=O)O)C(=O)N[C@@H](CC(=O)O)C(=O)N[C@@H](CCC(=O)O)C(=O)N[C@@H](CCC(=O)O)C(=O)N[C@@H](CC(C)C)C(N)=O [8M2D, Ac-dEEEDEEL-NH2] (Ac-[dD]EEEDEEL-NH2)
Return: 278

---

experiment: PK analysis of 8M2D in transgenic mice (APPSWE), plasma; settings: mouse, in vivo, sc, 250 mg/kg, Day 1, Mean over the 10, 50 and 250 mg/kg doses (N 3), read-out: Tmax, Mean
Square brackets hold non-standard residues; d marks the D form. Peptide text beside a SMILES is read from it.
endpoint-label: Tmax
Respond with the figure and its unit, in that order.

Enquiry: Find the recorded Tmax belonging to CC(=O)N[C@H](CC(=O)O)C(=O)N[C@@H](CCC(=O)O)C(=O)N[C@@H](CCC(=O)O)C(=O)N[C@@H](CCC(=O)O)C(=O)N[C@@H](CC(=O)O)C(=O)N[C@@H](CCC(=O)O)C(=O)N[C@@H](CCC(=O)O)C(=O)N[C@@H](CC(C)C)C(N)=O [8M2D, Ac-dEEEDEEL-NH2] (Ac-[dD]EEEDEEL-NH2) and report it.
Return: 10 min

---

assay: PK analysis of 8M2D in transgenic mice (APPSWE), plasma; conditions: mouse, in vivo, sc, 50 mg/kg, Day 1, 50 mg/kg, read-out: AUClast
Square brackets hold non-standard residues; d marks the D form. Peptide text beside a SMILES is read from it.
endpoint-label: AUC(0-t) (ng·h/mL)
Lab book: enter the figure in ng·h/mL, no units written.

Enquiry: Form field: reported AUC(0-t) of CC(=O)N[C@H](CC(=O)O)C(=O)N[C@@H](CCC(=O)O)C(=O)N[C@@H](CCC(=O)O)C(=O)N[C@@H](CCC(=O)O)C(=O)N[C@@H](CC(=O)O)C(=O)N[C@@H](CCC(=O)O)C(=O)N[C@@H](CCC(=O)O)C(=O)N[C@@H](CC(C)C)C(N)=O [8M2D, Ac-dEEEDEEL-NH2] (Ac-[dD]EEEDEEL-NH2)
Return: 70500

---

assay: PK analysis of 8M2D in transgenic mice (APPSWE), plasma; settings: mouse, in vivo, sc, 10 mg/kg, Day 1, 10 mg/kg, read-out: Cmax
Square brackets hold non-standard residues; d marks the D form. Peptide text beside a SMILES is read from it.
endpoint-label: Cmax (ng/mL)
Number only, in ng/mL; omit the unit.

Enquiry: // returns reported Cmax for input CC(=O)N[C@H](CC(=O)O)C(=O)N[C@@H](CCC(=O)O)C(=O)N[C@@H](CCC(=O)O)C(=O)N[C@@H](CCC(=O)O)C(=O)N[C@@H](CC(=O)O)C(=O)N[C@@H](CCC(=O)O)C(=O)N[C@@H](CCC(=O)O)C(=O)N[C@@H](CC(C)C)C(N)=O [8M2D, Ac-dEEEDEEL-NH2] (Ac-[dD]EEEDEEL-NH2)
Return: 14400

---

test: PK analysis of 8M2D in transgenic mice (APPSWE), plasma; settings: mouse, in vivo, sc, 250 mg/kg, Day 1, Mean over the 10, 50 and 250 mg/kg doses (N 3), read-out: AUClast, Mean
Square brackets hold non-standard residues; d marks the D form. Peptide text beside a SMILES is read from it.
endpoint-label: AUC(0-t)
Lab note: write values as number then unit, every time.

Enquiry: Suppose we examine the compound CC(=O)N[C@H](CC(=O)O)C(=O)N[C@@H](CCC(=O)O)C(=O)N[C@@H](CCC(=O)O)C(=O)N[C@@H](CCC(=O)O)C(=O)N[C@@H](CC(=O)O)C(=O)N[C@@H](CCC(=O)O)C(=O)N[C@@H](CCC(=O)O)C(=O)N[C@@H](CC(C)C)C(N)=O [8M2D, Ac-dEEEDEEL-NH2] (Ac-[dD]EEEDEEL-NH2) ; what AUC(0-t) value has been reported?
Return: 86400 ng·h/mL

---

experiment: PK analysis of 8M2D in transgenic mice (APPSWE), plasma; settings: mouse, in vivo, sc, 50 mg/kg, Day 13, 50 mg/kg, read-out: t1/2 (converted)
Square brackets hold non-standard residues; d marks the D form. Peptide text beside a SMILES is read from it.
endpoint-label: half-life (h)
Your answer is read as h, so omit the unit and give the number.

Enquiry: Need half-life, item CC(=O)N[C@H](CC(=O)O)C(=O)N[C@@H](CCC(=O)O)C(=O)N[C@@H](CCC(=O)O)C(=O)N[C@@H](CCC(=O)O)C(=O)N[C@@H](CC(=O)O)C(=O)N[C@@H](CCC(=O)O)C(=O)N[C@@H](CCC(=O)O)C(=O)N[C@@H](CC(C)C)C(N)=O [8M2D, Ac-dEEEDEEL-NH2] (Ac-[dD]EEEDEEL-NH2)
Return: 130
